targetSystem: T1, human collagen type I, acid soluble, extracted from placenta (Sigma C7774) (human, UniProt P02452 162-1218; P08123 80-1119)
T1 construct: tissue extract, gelled and dried in wells; also called dried human collagen; h-Collagen
T1 sequence (P02452 162-1218 limits assumed, chain 1 of 2): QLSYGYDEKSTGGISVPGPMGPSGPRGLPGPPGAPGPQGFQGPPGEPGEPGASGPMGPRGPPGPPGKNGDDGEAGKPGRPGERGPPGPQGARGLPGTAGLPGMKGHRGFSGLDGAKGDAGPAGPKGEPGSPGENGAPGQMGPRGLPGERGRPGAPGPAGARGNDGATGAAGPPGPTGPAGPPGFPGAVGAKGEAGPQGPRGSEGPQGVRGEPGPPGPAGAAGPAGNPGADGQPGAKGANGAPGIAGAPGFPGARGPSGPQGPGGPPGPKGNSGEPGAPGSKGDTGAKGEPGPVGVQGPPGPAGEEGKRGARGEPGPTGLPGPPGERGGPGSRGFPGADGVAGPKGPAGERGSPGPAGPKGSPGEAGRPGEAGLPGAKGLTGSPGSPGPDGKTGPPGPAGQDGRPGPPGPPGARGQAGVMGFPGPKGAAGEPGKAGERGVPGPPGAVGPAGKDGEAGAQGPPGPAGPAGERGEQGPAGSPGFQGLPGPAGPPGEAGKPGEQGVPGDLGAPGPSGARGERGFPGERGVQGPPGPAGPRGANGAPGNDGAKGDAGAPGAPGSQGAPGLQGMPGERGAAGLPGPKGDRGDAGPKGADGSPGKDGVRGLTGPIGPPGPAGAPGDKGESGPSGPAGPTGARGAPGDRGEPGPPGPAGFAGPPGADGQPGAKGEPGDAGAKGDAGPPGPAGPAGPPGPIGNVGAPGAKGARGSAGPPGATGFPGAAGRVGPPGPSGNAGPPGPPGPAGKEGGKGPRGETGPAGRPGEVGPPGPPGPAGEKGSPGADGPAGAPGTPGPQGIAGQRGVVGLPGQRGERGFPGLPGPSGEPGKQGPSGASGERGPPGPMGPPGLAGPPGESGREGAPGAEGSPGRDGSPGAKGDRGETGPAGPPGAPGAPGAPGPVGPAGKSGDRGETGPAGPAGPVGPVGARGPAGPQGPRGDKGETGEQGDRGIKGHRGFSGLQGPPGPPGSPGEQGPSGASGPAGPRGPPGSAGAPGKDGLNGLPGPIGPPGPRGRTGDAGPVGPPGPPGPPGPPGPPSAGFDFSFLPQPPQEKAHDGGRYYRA
T1 sequence (P08123 80-1119 limits assumed, chain 2 of 2): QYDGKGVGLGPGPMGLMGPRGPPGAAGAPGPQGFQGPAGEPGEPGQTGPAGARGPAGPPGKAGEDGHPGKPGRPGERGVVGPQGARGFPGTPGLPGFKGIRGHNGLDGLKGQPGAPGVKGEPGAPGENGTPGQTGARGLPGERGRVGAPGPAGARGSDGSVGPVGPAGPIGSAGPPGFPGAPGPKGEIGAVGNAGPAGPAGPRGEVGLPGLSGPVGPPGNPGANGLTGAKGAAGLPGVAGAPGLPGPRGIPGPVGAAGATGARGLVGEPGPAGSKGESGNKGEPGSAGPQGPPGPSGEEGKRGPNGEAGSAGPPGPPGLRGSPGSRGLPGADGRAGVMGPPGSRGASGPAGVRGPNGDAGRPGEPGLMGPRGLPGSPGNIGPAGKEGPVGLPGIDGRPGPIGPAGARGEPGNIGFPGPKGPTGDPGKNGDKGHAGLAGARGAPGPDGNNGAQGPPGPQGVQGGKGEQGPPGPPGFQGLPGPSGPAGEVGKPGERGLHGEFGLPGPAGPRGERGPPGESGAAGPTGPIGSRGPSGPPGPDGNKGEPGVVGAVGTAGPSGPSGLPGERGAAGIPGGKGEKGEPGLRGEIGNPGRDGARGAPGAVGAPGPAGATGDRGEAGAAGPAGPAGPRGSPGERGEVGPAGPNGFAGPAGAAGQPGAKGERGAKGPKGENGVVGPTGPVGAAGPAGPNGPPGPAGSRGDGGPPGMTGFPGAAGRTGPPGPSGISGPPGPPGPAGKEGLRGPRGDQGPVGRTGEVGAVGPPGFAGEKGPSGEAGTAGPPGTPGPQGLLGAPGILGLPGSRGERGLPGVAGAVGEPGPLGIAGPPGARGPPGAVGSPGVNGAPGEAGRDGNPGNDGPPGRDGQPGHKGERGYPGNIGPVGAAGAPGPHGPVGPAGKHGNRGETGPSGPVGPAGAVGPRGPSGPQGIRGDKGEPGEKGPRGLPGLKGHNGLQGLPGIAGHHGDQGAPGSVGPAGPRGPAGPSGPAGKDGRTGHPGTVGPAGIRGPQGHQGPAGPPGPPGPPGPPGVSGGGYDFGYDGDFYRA
protocol: dried collagen assay
Bridge positions count the residues as written; N and C are the ends. Square brackets hold non-standard residues; d marks the D form. Primed or numbered codes have the meaning given here. Side chains are listed from the residue outwards. Ends that are not written are not given here. hTyr = N[C@@H](CCc1ccc(O)cc1)C(=O)O; Gd^T″ = GdDTPA-thiourea
Recorded % bound, one value per entry.
metricName: % bound (%)

binder	metricName	result
{Gd^T″}-GQWHCTTIFPHH[dY]CLYG (disulfide 5-14 (inferred); not fully specified (C-terminus)) [Compound ID 917]	% bound	12
{Gd^T″}-GK([Gly-Gd^T″])WHCTTYFPHHYCLYY (disulfide 5-14 (inferred)) [Compound ID 949]	% bound	72
{Gd^T″}-GQWHCTTRFPSHYCLYG (disulfide 5-14 (inferred)) [Compound ID 880]	% bound	30
{Gd^T″}-GK([Gly-Gd^T″])WHCTTYFPHYYCLYG (disulfide 5-14 (inferred)) [Compound ID 947]	% bound	64
{Gd^T″}-GQWHCTTRFPHH[hTyr]CLYG (disulfide 5-14 (inferred)) [Compound ID 933]	% bound	36
{Gd^T″}-GFK([Phe-Gly-Gd^T″])WHCTTYFPHHYCLYG (disulfide 6-15 (inferred); not fully specified (C-terminus)) [Compound ID 983]	% bound	58
